assay-overview: qHTS assay to identify small molecule agonists of the estrogen receptor beta (ER-beta) signaling pathway - cell viability counter screen (AID 1259380); also: nearly all actives have a fitted effect of over 30% in size; also: potency is read from the fitted curve at half-maximal effect
experimental-parameters: ER-beta-bla HEK293T viability, CellTiter-Glo luminescence, 16 h; series mostly up to 92.4 µM
Results filed as inconclusive are left out. Activity calls are given as the source filed them. Calls follow the shape of the dose curve; as a rule, active = well fitted cell-killing curve with a large enough effect in the repeat runs; inconclusive = weak or mixed curves, or effect the other way; inactive = flat fitted curve, though single readings scatter.
reported-endpoint: Potency

>>> observed_value("CC(CC(C)(C)C)CC(C)(C)CC(C)(C)C (stereo unspecified)")
"inactive"
>>> observed_value("Oc1ccc2c(c1)CCC2")
"inactive"
>>> observed_value("O[Si](c1ccccc1)(c1ccccc1)c1ccccc1")
"48.6 µM (active)"
>>> observed_value("C=COCCCC")
"inactive"
>>> observed_value("CC1(C)[C@H]2CC[C@]1(C)C(=O)C2")
"inactive"

Attention now shifts to the item below.
For record Cc1ccc(N=Nc2c(O)ccc3ccccc23)c(C)c1 the listed Potency is inactive

###

assay-overview: qHTS assay for small molecules that induce genotoxicity in human embryonic kidney cells expressing luciferase-tagged ATAD5 - cell viability (AID 651634); also: nearly all actives have a fitted effect of over 25% in size; also: potency is read from the fitted curve at half-maximal effect
experimental-parameters: HEK293T ATAD5-luc cells viability, CellTiter-Fluor, 15.5 h; series mostly up to 83.3 µM
Inconclusive results are not listed. Active and inactive are the calls of the source. Calls follow the shape of the full dose curve.
reported-endpoint: Potency

# count of solved cases: 5
>>> observed_value("O=[N+]([O-])c1ccc(O)c2ncccc12")
"21.1 µM (active)"
>>> observed_value("COc1cccc2c1[C@@H]1CN(CCCCn3c(=O)[nH]c4c(sc5ncc(-c6ccccc6)nc54)c3=O)C[C@@H]1CO2")
"26.6 µM (active)"
>>> observed_value("C[C@@H]1C(=O)NC2=Nc3cccc(Cl)c3CN21")
"inactive"
>>> observed_value("CC[C@@H](C(=O)[C@@H](C)[C@@H](O)[C@H](C)CCc1ccc(C)c(O)c1C(=O)O)[C@H]1O[C@](CC)([C@H]2CC[C@](O)(CC)[C@H](C)O2)C[C@@H]1C")
"23.7 µM (active)"
>>> observed_value("COC1=C(OC)C(=O)C(C/C=C(\\C)CC/C=C(\\C)CC/C=C(\\C)CC/C=C(\\C)CC/C=C(\\C)CC/C=C(\\C)CC/C=C(\\C)CC/C=C(\\C)CC/C=C(\\C)CCC=C(C)C)=C(C)C1=O")
"inactive"

Batch request: Potency per item, same order as input.
1. CC1(C)CCC(NC(=O)[C@@H](N)CCC(=O)O)CC1
2. S=C1NC=NC2N=CNC12 (centres undefined)
3. Cc1cc(F)ccc1-c1cc(N2CC[C@@H](O)[C@H]2CO)ncc1N(C)C(=O)C(C)(C)c1cc(C(F)(F)F)cc(C(F)(F)F)c1
4. O=C1CCC/C=C\CCCCCCCCCC1

Outgoing:
1. inactive
2. inactive
3. 47.8 µM (active)
4. inactive

###

assay-overview: A CellTox Green Cytotoxicity Assay to monitor cytotoxicity in HepG2 cells - 40 hour (AID 1224879); also: nearly all actives have a fitted effect of over 40% in size; also: potency is read from the fitted curve at half-maximal effect
experimental-parameters: CellTox Green fluorescence; series mostly up to 76.8 µM
Results filed as inconclusive are left out. Active and inactive are the calls of the source. Calls follow the shape of the dose curve; as a rule, active = well fitted activation curve with a large enough effect in the repeat runs; inconclusive = weak or mixed curves; inactive = flat fitted curve, though single readings scatter.
reported-endpoint: Potency

# count of solved cases: 5
>>> observed_value("CC(=O)CC(N)=O")
"inactive"
>>> observed_value("COc1cccc(-c2ccc(/C=C\\CN3CCCCCC3)cc2Cl)c1")
"38.7 µM (active)"
>>> observed_value("Nc1ccc(Cl)c([N+](=O)[O-])c1")
"inactive"
>>> observed_value("C/C(=N\\[Si](C)(C)C)O[Si](C)(C)C")
"inactive"
>>> observed_value("CCN(CC)c1ccc(N=Nc2ccccc2)cc1")
"inactive"

Batch request: Potency per item, same order as input.
1. C=CCc1cc(S(=O)(=O)c2ccc(O)c(CC=C)c2)ccc1O
2. [Cl][Sc]([Cl])[Cl]

Outgoing:
inactive
inactive

Batch request: Potency per item, same order as input.
1. NCc1ccco1
2. Clc1nc(C(Cl)(Cl)Cl)c(Cl)c(Cl)c1Cl
3. CCCCCCCCc1ccc(Nc2ccc(CCCCCCCC)cc2)cc1
4. CCc1cccc(CC)c1
5. CCC(C)(C)c1ccc(CC(C)CN2C[C@@H](C)O[C@@H](C)C2)cc1 (some centres undefined)
6. C/C=C/C(=O)C1=C(C)C=CCC1(C)C
7. CCOC(=O)[C@H](O)[C@@H](O)C(=O)OCC

Outgoing:
inactive
43.6 µM (active)
inactive
inactive
23.9 µM (active)
inactive
inactive

###

assay-overview: qHTS RealTime-Glo MT Cell Viability Assay in HepG2 cells - 24 hour (AID 1224867); also: nearly all actives have a fitted effect of over 50% in size; also: potency is read from the fitted curve at half-maximal effect
experimental-parameters: RealTime-Glo luminescence; series mostly up to 76.8 µM
Results filed as inconclusive are left out. Active and inactive are the calls of the source. The call rests on the fitted dose curve; in most records, active means well fitted cell-killing curve with a large enough effect in the repeat runs; inconclusive means weak or mixed curves; inactive means flat fitted curve, though single readings scatter.
reported-endpoint: Potency

# count of solved cases: 5
>>> observed_value("Cc1ccc(S(=O)(=O)C(I)I)cc1")
"11 µM (active)"
>>> observed_value("CCC(O)CO (stereo unspecified)")
"inactive"
>>> observed_value("CCC1(C)C(=O)N(Cl)C(=O)N1Cl (stereo unspecified)")
"inactive"
>>> observed_value("Oc1ccc2c(c1)CCC2")
"inactive"
>>> observed_value("CC(=O)[C@]1(O)Cc2c(O)c3c(c(O)c2[C@@H](O[C@H]2C[C@H](N)[C@H](O)[C@H](C)O2)C1)C(=O)c1ccccc1C3=O")
"6.01 µM (active)"

Batch request: Potency per item, same order as input.
1. Nc1ccc(Oc2cccc(Oc3ccc(N)cc3)c2)cc1
2. O=C(Nc1ccc([N+](=O)[O-])cc1)Nc1ccc([N+](=O)[O-])cc1 (tested in a mixture with another compound)

Outgoing:
["inactive", "inactive"]

Batch request: Potency per item, same order as input.
1. c1ccc2c(c1)-c1ccc3ccc4cccc5cc-2c1c3c45
2. CCOc1nc(F)cc2nc(S(=O)(=O)Nc3c(Cl)cccc3C(=O)OC)nn12
3. O=C1OC(=O)c2cc(-c3ccc4c(c3)C(=O)OC4=O)ccc21
4. Nc1cccnc1N
5. O=C1OC2(c3ccccc31)c1ccc(O)c(Br)c1Oc1c2ccc(O)c1Br
6. Oc1ccc(Cl)cc1C1CCCC1

Outgoing:
1: inactive; 2: inactive; 3: inactive; 4: inactive; 5: inactive; 6: inactive

Batch request: Potency per item, same order as input.
1. CCCCCCCCSCc1cc(C)c(O)c(CSCCCCCCCC)c1
2. CCCCCCCCOC(=O)c1cc(O)c(O)c(O)c1
3. COCCC(=O)OC

Outgoing:
inactive
19.5 µM (active)
inactive

###

assay-overview: qHTS RealTime-Glo MT Cell Viability Assay in HEK293 cells - 40 hour (AID 1224874); also: % is scaled to controls: 0 for no effect and ±100 for the full control effect; nearly all actives have a fitted effect of over 50% in size
experimental-parameters: RealTime-Glo luminescence; stronger effect = lower value
Records with an inconclusive call do not appear.
reported-endpoint: max response (%)
One number for each entry, in %.

>>> observed_value("CC(C)C(=O)C(C)C")
8.37
>>> observed_value("Oc1ccc(Cl)cc1C1CCCC1")
-29.3
>>> observed_value("CSc1nnc(C(C)(C)C)c(=O)[nH]1")
1.65
>>> observed_value("O=[N+]([O-])c1ccc(CO)cc1")
7.7
>>> observed_value("CC(CC(C)(C)C)CC(C)(C)CC(C)(C)C (stereo not drawn)")
3.32
>>> observed_value("Oc1cccc2c(O)cccc12")
3.51

Batch request: max response per item, same order as input.
1. COc1cc2ncnc(Nc3cccc(Cl)c3)c2cc1OC
2. CC(C=O)c1ccccc1 (stereo not drawn)

Outgoing:
1: -0.219; 2: -16.6

###

assay-overview: A CellTox Green Cytotoxicity Assay to monitor cytotoxicity in HepG2 cells - 8 hour (AID 1224890); also: % is scaled to controls: 0 for no effect and ±100 for the full control effect; nearly all actives have a fitted effect of over 45% in size
experimental-parameters: CellTox Green fluorescence; series mostly up to 76.8 µM
Records with an inconclusive call do not appear. The source made the active and inactive calls. The call rests on the fitted dose curve; in most records, active means well fitted activation curve with a large enough effect in the repeat runs; inconclusive means weak or mixed curves; inactive means flat fitted curve, though single readings scatter.
Task for the reader: assign each of the following compounds its reported cytotoxicity increase.

>>> observed_value("COc1cc(C(C)C)ccc1C")
"-11.9% [at 15.8 µM] (inactive)"
>>> observed_value("C=C[Si](C)(C)Cl")
"-7.78% [at 6.97 µM] (inactive)"
>>> observed_value("CCCCCCCCCCCCS(=O)(=O)Cl")
"-21% [at 15.8 µM] (inactive)"

Attention now shifts to the item below.
For record COc1cc2ncnc(Nc3cccc(Cl)c3)c2cc1OC the listed cytotoxicity increase is -18% [at 15.8 µM] (inactive)

###

assay-overview: qHTS assay to identify aromatase inhibitors - cell viability counter screen (AID 743084);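 also: cells stimulated with testosterone during compound exposure; nearly all actives have a fitted effect of over 55% in size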
experimental-parameters: MCF-7 aro ERE viability, CellTiter-Fluor, 24 h; series mostly up to 70.3 µM
Results filed as inconclusive are left out. Active and inactive are the calls of the source. Calls follow the shape of the dose curve; as a rule, active = well fitted cell-killing curve with a large enough effect in the repeat runs; inconclusive = weak or mixed curves, or effect the other way; inactive = no such curve, though single readings can be large or run the other way.
Parameter call: string, one of active, inactive

# example entries with known answers
>>> class_name("CN(C)CCc1c[nH]c2ccc(Cn3cncn3)cc12")
"inactive"
>>> class_name("Cc1cc(-c2ccc(N=Nc3ccc4c(S(=O)(=O)O)cc(S(=O)(=O)O)c(N)c4c3O)c(C)c2)ccc1N=Nc1ccc2c(S(=O)(=O)O)cc(S(=O)(=O)O)c(N)c2c1O")
"active"
>>> class_name("O=S(=O)(O)CC(S)CS (stereo not given)")
"inactive"
>>> class_name("c1ccc2occc2c1")
"active"

Kindly review the next molecule as well.
Incoming: # fetch the recorded call for CC(C)CCC[C@@H](C)[C@H]1CC[C@H]2[C@@H]3CC[C@@H]4C[C@H](O)CC[C@]4(C)[C@H]3CC[C@]12C here
Outgoing: inactive
